test system: SK-MEL-28; test: Cytotoxicity against human SK-MEL-28 cells assessed as cell growth at 10 uM after 48 hrs by SRB assay; assay type: functional; conditions: SK-MEL-28, 48 h, read-out: Activity
Could you please report measured growth at 10 µM for the items listed next?

Query string: I have this compound here, Cc1ccc(-c2csc3nc(N4NC(=O)CC4=O)cn23)cc1 , and I need its recorded growth at 10 µM.
Result string: 102%

Query string: Give its growth at 10 µM value. Item: Cc1ccc(-c2csc3nc(-n4nc(C)cc4C)cn23)cc1
Result string: 94.8%

Query string: Which growth at 10 µM is listed for CC1=NN(c2cn3c(-c4ccc(Cl)cc4)csc3n2)C(=O)C1 ?
Result string: 96.3%

Query string: Return reported growth at 10 µM; argument: CC1=NN(c2cn3c(-c4ccccc4)csc3n2)C(=O)C1
Result string: 102%

Query string: I have this compound here, Cc1cc(C)n(-c2cn3c(-c4ccccc4)csc3n2)n1 , and I need its recorded growth at 10 µM.
Result string: 102%

Query string: Given the compound O=C1CN2C(c3ccc(Cl)cc3)=CSC2=N1 , what is its reported growth at 10 µM?
Result string: 95.7%

----------
test system: Malme-3M; assay: Cytotoxicity against human MALME-3M cells assessed as cell growth at 10 uM after 48 hrs by SRB assay; assay type: functional; conditions: read-out: Activity
Measured Parameter: growth at 10 µM (%)
Report only the number, with the unit % understood.

Query string: For the molecule CC1=NN(c2cn3c(-c4ccccc4)csc3n2)C(=O)C1 , what growth at 10 µM is on record?
Result string: 107

Query string: Data request, read-out growth at 10 µM, for O=C1CC(=O)N(c2cn3c(-c4ccc(Cl)cc4)csc3n2)N1
Result string: 97.1

Query string: # query: growth at 10 µM of entry O=C1CN2C(c3ccc(Cl)cc3)=CSC2=N1
Result string: 99.3

Query string: Form field: reported growth at 10 µM of Cc1cc(C)n(-c2cn3c(-c4ccc(Cl)cc4)csc3n2)n1
Result string: 93.1

Query string: What value of growth at 10 µM has been recorded for this entry: CC1=NN(c2cn3c(-c4ccc(Cl)cc4)csc3n2)C(=O)C1
Result string: 102

Query string: What measured growth at 10 µM goes with O=C1CN2C(c3ccccc3)=CSC2=N1 ?
Result string: 102

Query string: Give its growth at 10 µM value. Item: Cc1cc(C)n(-c2cn3c(-c4ccccc4)csc3n2)n1
Result string: 94.1

Query string: Suppose we examine the molecule Cc1ccc(-c2csc3nc(N4NC(=O)CC4=O)cn23)cc1 ; what growth at 10 µM value has been reported?
Result string: 118

Query string: # get_value(readout='growth at 10 µM', item= O=C1CC(=O)N(c2cn3c(-c4ccccc4)csc3n2)N1 )
Result string: 141

Query string: What value of growth at 10 µM has been reported for the following molecule? Cc1ccc(-c2csc3nc(-n4nc(C)cc4C)cn23)cc1
Result string: 114

Query string: Value lookup for growth at 10 µM; key = CC1=NN(c2cn3c(-c4ccc(C)cc4)csc3n2)C(=O)C1
Result string: 107

----------
tested on: HT-29; assay: Cytotoxicity against human HT-29 cells assessed as cell growth at 10 uM after 48 hrs by SRB assay; format: functional; conditions: HT-29, 48 h, read-out: Activity
Measured Parameter: growth at 10 µM (%)
Only the number, expressed in %, is required.

Query string: Any idea what growth at 10 µM was measured for Cc1cc(C)n(-c2cn3c(-c4ccc(Cl)cc4)csc3n2)n1 ?
Result string: 87

Query string: I am curious: what growth at 10 µM value has been reported for CC1=NN(c2cn3c(-c4ccc(Cl)cc4)csc3n2)C(=O)C1 ?
Result string: 85.7

Query string: Find the recorded growth at 10 µM belonging to O=C1CN2C(c3ccccc3)=CSC2=N1 and report it.
Result string: 109

Query string: I am curious: what growth at 10 µM value has been reported for O=C1CC(=O)N(c2cn3c(-c4ccccc4)csc3n2)N1 ?
Result string: 104

Query string: Fill in the blank: the reported growth at 10 µM of Cc1ccc(-c2csc3nc(-n4nc(C)cc4C)cn23)cc1 is ____.
Result string: 104

Query string: # get_value(readout='growth at 10 µM', item= O=C1CC(=O)N(c2cn3c(-c4ccc(Cl)cc4)csc3n2)N1 )
Result string: 91.3

Query string: Which growth at 10 µM is listed for O=C1CN2C(c3ccc(Cl)cc3)=CSC2=N1 ?
Result string: 88.4

Query string: Fill in: growth at 10 µM of Cc1cc(C)n(-c2cn3c(-c4ccccc4)csc3n2)n1 is ___
Result string: 97.6

Query string: Reported growth at 10 µM for Cc1ccc(-c2csc3nc(N4NC(=O)CC4=O)cn23)cc1 : what is it?
Result string: 111

Query string: I am curious: what growth at 10 µM value has been reported for CC1=NN(c2cn3c(-c4ccc(C)cc4)csc3n2)C(=O)C1 ?
Result string: 118

Query string: What measured growth at 10 µM goes with CC1=NN(c2cn3c(-c4ccccc4)csc3n2)C(=O)C1 ?
Result string: 106
